Every entry's value here was drawn from PubChem BioAssay AID1963433.

system: 772245-204-R-J1-PDC complex spheroid growth; test: Anticancer human tumor 772245-204-R-J1-PDC patient-derived rhabdomyosarcoma cell line growth inhibition [Asc]; conditions: second compound 10 µM; first compound 0.0316 µM; stronger effect = lower value;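 note: compound exposure lasted seven days; 100% = DMSO vehicle control viability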
viability, T/C values for the compounds below.
Measurement Label: viability, T/C (%)

INSERT INTO assay_data (compound, measurement_label, unit_abbrev, assay_result) VALUES
  ('C#Cc1c(F)ccc2cc(O)cc(-c3ncc4c(N5CC6CCC(C5)N6)nc(OCC56CCCN5CC(F)C6)nc4c3F)c12 (stereo not given) + Cc1c(S(C)(=O)=O)c(-c2cc(F)cc(N3CCN(c4ccc(NS(=O)(=O)c5ccc(NC(CCN6CCC(C(=O)OCCCP(=O)(O)O)CC6)CSc6ccccc6)c(S(=O)(=O)C(F)(F)F)c5)cc4)CC3)c2)c(-c2ccc(Cl)cc2)n1C(C)C', 'viability, T/C', '%', 44),
  ('C=C(F)C(=O)N1CCN(c2nc(OCC3CCCN3C)nc3c2CCN(c2cccc4cccc(Cl)c24)C3)CC1CC#N (stereo not given) + Cc1c(S(C)(=O)=O)c(-c2cc(F)cc(N3CCN(c4ccc(NS(=O)(=O)c5ccc(NC(CCN6CCC(C(=O)OCCCP(=O)(O)O)CC6)CSc6ccccc6)c(S(=O)(=O)C(F)(F)F)c5)cc4)CC3)c2)c(-c2ccc(Cl)cc2)n1C(C)C', 'viability, T/C', '%', 43.3),
  ('NC1CCC(NC2CC2c2ccccc2)CC1 (stereo not given) + Cc1c(S(C)(=O)=O)c(-c2cc(F)cc(N3CCN(c4ccc(NS(=O)(=O)c5ccc(NC(CCN6CCC(C(=O)OCCCP(=O)(O)O)CC6)CSc6ccccc6)c(S(=O)(=O)C(F)(F)F)c5)cc4)CC3)c2)c(-c2ccc(Cl)cc2)n1C(C)C', 'viability, T/C', '%', 16.8),
  ('CCN1CCN(Cc2ccc(Nc3ncc(F)c(-c4cc(F)c5nc(C)n(C(C)C)c5c4)n3)nc2)CC1 + Cc1c(S(C)(=O)=O)c(-c2cc(F)cc(N3CCN(c4ccc(NS(=O)(=O)c5ccc(NC(CCN6CCC(C(=O)OCCCP(=O)(O)O)CC6)CSc6ccccc6)c(S(=O)(=O)C(F)(F)F)c5)cc4)CC3)c2)c(-c2ccc(Cl)cc2)n1C(C)C', 'viability, T/C', '%', 41),
  ('Cn1ncnc1[C@H]1c2n[nH]c(=O)c3cc(F)cc(c23)N[C@@H]1c1ccc(F)cc1 + Cc1c(S(C)(=O)=O)c(-c2cc(F)cc(N3CCN(c4ccc(NS(=O)(=O)c5ccc(NC(CCN6CCC(C(=O)OCCCP(=O)(O)O)CC6)CSc6ccccc6)c(S(=O)(=O)C(F)(F)F)c5)cc4)CC3)c2)c(-c2ccc(Cl)cc2)n1C(C)C', 'viability, T/C', '%', 11.1),
  ('COc1c(OCCCN2CCOCC2)ccc2c3n(c(=NC(=O)c4cnc(N)nc4)nc12)CCN3 + Cc1c(S(C)(=O)=O)c(-c2cc(F)cc(N3CCN(c4ccc(NS(=O)(=O)c5ccc(NC(CCN6CCC(C(=O)OCCCP(=O)(O)O)CC6)CSc6ccccc6)c(S(=O)(=O)C(F)(F)F)c5)cc4)CC3)c2)c(-c2ccc(Cl)cc2)n1C(C)C', 'viability, T/C', '%', 39.1),
  ('CNC(C)C(=O)NC1CN(S(=O)(=O)c2cccc(S(=O)(=O)N3CCC4CCC(C(=O)NC(c5ccccc5)c5ccccc5)N4C(=O)C(NC(=O)C(C)NC)C3)c2)CCC2CCC(C(=O)NC(c3ccccc3)c3ccccc3)N2C1=O (stereo not given) + Cc1c(S(C)(=O)=O)c(-c2cc(F)cc(N3CCN(c4ccc(NS(=O)(=O)c5ccc(NC(CCN6CCC(C(=O)OCCCP(=O)(O)O)CC6)CSc6ccccc6)c(S(=O)(=O)C(F)(F)F)c5)cc4)CC3)c2)c(-c2ccc(Cl)cc2)n1C(C)C', 'viability, T/C', '%', 31.4),
  ('C=CC(=O)N1CCN(c2nc(=O)n(-c3c(C)ccnc3C(C)C)c3nc(-c4c(O)cccc4F)c(F)cc23)C(C)C1 (stereo not given) + Cc1c(S(C)(=O)=O)c(-c2cc(F)cc(N3CCN(c4ccc(NS(=O)(=O)c5ccc(NC(CCN6CCC(C(=O)OCCCP(=O)(O)O)CC6)CSc6ccccc6)c(S(=O)(=O)C(F)(F)F)c5)cc4)CC3)c2)c(-c2ccc(Cl)cc2)n1C(C)C', 'viability, T/C', '%', 48.5),
  ('O=C(c1ccc(F)c(F)c1Nc1ccc(I)cc1F)N1CC(O)([C@@H]2CCCCN2)C1 + Cc1c(S(C)(=O)=O)c(-c2cc(F)cc(N3CCN(c4ccc(NS(=O)(=O)c5ccc(NC(CCN6CCC(C(=O)OCCCP(=O)(O)O)CC6)CSc6ccccc6)c(S(=O)(=O)C(F)(F)F)c5)cc4)CC3)c2)c(-c2ccc(Cl)cc2)n1C(C)C', 'viability, T/C', '%', 57.1),
  ('O=C(c1cc(Cc2n[nH]c(=O)c3ccccc23)ccc1F)N1CCN(C(=O)C2CC2)CC1 + Cc1c(S(C)(=O)=O)c(-c2cc(F)cc(N3CCN(c4ccc(NS(=O)(=O)c5ccc(NC(CCN6CCC(C(=O)OCCCP(=O)(O)O)CC6)CSc6ccccc6)c(S(=O)(=O)C(F)(F)F)c5)cc4)CC3)c2)c(-c2ccc(Cl)cc2)n1C(C)C', 'viability, T/C', '%', 34.8);
